# Tested on: Human papillomavirus type 1a E7 protein (residues 1-88)
# assay_protocol: HPV1a E7 small-molecule binders, primary screen, biochemical, small-molecule microarray, residues 1-88, 635 nm (AID 1129)
# condition_set: small-molecule microarray binding, fluorescence 635 nm; higher = more signal
Below: a set of entries, each annotated with reported composite z-score.
observation_type: composite z-score

compound	observed
C=C[C@@H](COC(C)=O)N(Cc1ccc([N+](=O)[O-])cc1)S(=O)(=O)c1ccc(Br)cc1	1.17
COCCOC(=O)N1C(=O)[C@@]2(c3cc(C#CCC(C(=O)OC)C(=O)OC)ccc31)[C@H](C(=O)N1CCN(c3ncccn3)CC1)[C@H]1C(=O)O[C@H](c3ccccc3)[C@H](c3ccccc3)N1[C@@H]2c1ccc(OCCO)cc1	1.19
CCCCCN1CC=CC23O[C@@H]4/C=C\CCCOC(=O)C4[C@H]2C(=O)N(CCCCCCO)[C@@H]3C1=O (stereo not given in full)	0.906
C[N+](C)(C)CCCCCCNC(=O)[C@H]1C[C@H]2C(=O)N3CCC[C@H]3C(=O)N2[C@H]1c1ccc(O)cc1	0.0132
CC(C)C(=C=CC[C@H](O)c1ccccc1OCCO)C[C@H](O)c1ccccn1	0.958
CN(C)CCCCNC(=O)[C@H]1C[C@H]2C(=O)N[C@@H](Cc3ccccc3)C(=O)N2[C@H]1c1ccc(O)cc1	1.16
C=C(C(=O)CC[C@H](OC(C)=O)c1ccc(OCCO)cc1)C(C)C	-0.02
Cc1ccc([C@H]2C(C(=O)O)=C[C@@H](C)N2S(=O)(=O)c2ccc(C)cc2)cc1	1.14
COCCOC(=O)N1C(=O)[C@@]2(c3ccccc31)[C@H](C(=O)Nc1nc3ccccc3s1)[C@H]1C(=O)O[C@H](c3ccccc3)[C@H](c3ccccc3)N1[C@@H]2c1ccc(OCCO)cc1	1.17
CC(C)N1CC=CC23O[C@@H]4C=CCOC(=O)[C@@H]4[C@H]2C(=O)N(CCO)[C@@H]3C1=O (stereo not given in full)	-0.586
Cc1ccc(S[C@]2(C(=O)NCC(C)C)CC(=O)N(Cc3ccccc3)[C@@H]2c2ccc(CO)cc2I)cc1	0.904
O=C1OCCC/C=C\[C@H]2OC34C=CCN(Cn5nnc6ccccc65)C(=O)[C@H]3N(CCCCCO)C(=O)[C@@H]4C12 (stereo not given in full)	-0.654
O=C1c2ccccc2[C@@]2(Cc3ccccc3N(Cc3ccccc3)C2=O)[C@H](c2ccc(CO)cc2)N1C1CCCCC1	0.174
CCOC(=O)C[C@H]1[C@H](OC(=O)Cc2ccc3c(c2)OCO3)[C@@H](NC(=O)c2ccc(-c3ccccc3)cc2)c2cc(OCCCO)ccc2N1C(=O)c1ccccc1	1.06
COCCCNC(=O)[C@@]1(CCC(=O)OC(C)(C)C)N=C(c2ccc(OCCCO)cc2)O[C@H]1c1ccccc1CN=[N+]=[N-]	1.04
